This section presents molecules with their documented TGI values.
Tested on: SW-620 colon
Assay: NCI tumour cell line growth inhibition, 48 h
*1 amine or outer side, *2 acyl side, *3 side chain or, on linkers, in order; H or OH if unused. Where a SMILES comes first, the peptide text is derived from it. Bridges are numbered along the chain shown (N, C = ends). Roman numbers before positions name the chains, in order. [ ]: non-standard residue; d: D form. Actinocin(9to1) = Cc1c2oc3c(C)ccc(C(=O)[*:1])c3nc-2c(C(=O)[*:2])c(N)c1=O; NMeV = CN[CH](C(=O)O)C(C)C; Sar = CNCC(=O)O
metric_name: TGI

CC(C)(C)c1ccc(O)c(C(c2ccc([N+](=O)[O-])cc2)c2cc(C(C)(C)C)ccc2O)c1	4.71 µM
CSC(=Nc1ccccc1Cl)NC(=O)c1ccc(Br)cc1	> 100 µM
Cc1c2oc3c(C)ccc(C(=O)OC(C)C4NC(=O)C(C(C)C)N(C)C(=O)CN(C)C(=O)C5CCCN5C(=O)C(C(C)C)NC4=O)c3nc-2c(C(=O)OC(C)C2NC(=O)C(C(C)C)N(C)C(=O)CN(C)C(=O)C3CCCN3C(=O)C(C(C)C)NC2=O)c(N)c1=O (configuration not stated) (I: cyclo([Sar][NMeV]TVP) / II: cyclo([Sar][NMeV]TVP); linker I:3-II:3 via Actinocin(9to1); configuration not given here)	17.7 µM
O=C(Nc1cc(Cl)ccc1Cl)c1cc2cccc(Br)c2oc1=O	> 100 µM
CCOC(=O)C1(C#N)C2(C#N)C(N)=NC(ON=C(C)C)(ON=C(C)C)C12C#N (configuration not stated)	> 100 µM
Cc1nc2ccccc2c(=O)n1NC(=O)c1ccccc1[N+](=O)[O-]	> 100 µM
O=P(O)(O)OCC1OC(n2cnc3c(NCc4ccco4)ncnc32)C(O)C1O (configuration not stated)	> 44.3 µM

----------
System: HOP-62 NSCLC
Test: NCI tumour cell line growth inhibition, 48 h
This section presents compounds with their documented TGI values.
metric_name: TGI (µM)

O=C(N/C(=C\c1c(O)ccc2ccccc12)c1nc2ccccc2[nH]1)c1ccccc1	76.1
CCCCCCCN(CCCCCCC)C(=N)c1ccnc2ccccc12	2.65
C[N+](C)=c1ccc2nc3c(ccc4ccccc43)oc-2c1	34.2
Cc1ccc(-c2c(C#N)[n+](=O)c3cc(F)c(F)cc3n2[O-])cc1	19.7
Cc1cc2c(cc1C)[n+](=O)c(C(=O)/C=C/c1ccc3c(c1)OCO3)c(C)n2[O-]	59.1
O=C1/C(=C/c2ccc(F)c(F)c2)CN(C(=O)C(Cl)Cl)C/C1=C\c1ccc(F)c(F)c1	0.745
O=C(Nc1ccc2ncnc(Nc3ccc(Oc4cccc(F)c4)c(Cl)c3)c2c1)c1ccc(CN2CCOCC2)cc1	8.47
COc1cccc2c1C(=O)c1c(O)c3c(c(O)c1C2=O)C[C@@](O)(C(C)=O)C[C@@H]3OC1CC([N+]([O-])(Cc2ccccc2)Cc2ccccc2)C(O)C(C)O1 (some centres not stated)	2.98
CN(C)C(=S)/N=c1\ssc(=S)n1Cc1cccs1	81.3
c1ccc2cc(Cn3cc[n+](Cc4ccc5ccccc5c4)c3)ccc2c1	17

----------
This section presents compounds with their documented GI50 values.
Test system: DU-145 prostate
Assay: NCI tumour cell line growth inhibition, 48 h
metric_name: GI50

O=C1Nc2ccccc2/C1=C\c1cccc(/C=C2/C(=O)Nc3ccccc32)n1	881 nM
COC1CC(C)C(OC)c2cc(O)cc(c2O)NC(=O)/C(C)=C/C=C\C(C)C(OC(N)=O)/C(C)=C\C(C)C1OC (centres undefined)	1590 nM
CN(C)C[C@H]1CCn2c(c(C3=C(c4cn(C)c5ccccc45)C(=O)NC3=O)c3ccccc32)C1	5460 nM
C=C(C)[C@@H]1CC[C@]2(COCCCNCCCN)CC[C@]3(C)[C@H](CC[C@@H]4[C@@]5(C)CC[C@H](OCCCN)C(C)(C)[C@@H]5CC[C@]43C)[C@@H]12	895 nM

----------
This section presents compounds with their documented TGI values.
System: HOP-92 NSCLC
Assay: NCI tumour cell line growth inhibition, 48 h
metric_name: TGI (µM)

O=C1NCN(c2ccccc2)C12CCN(CCCC(c1ccc(F)cc1)c1ccc(F)cc1)CC2	2.62
COC1=CC(=O)C(Br)=CC1=O	29.8
c1ccc2cc(Cn3cc[n+](Cc4ccc5ccccc5c4)c3)ccc2c1	1.39
CC(C)(C)c1cc(C(=O)C2Cc3ccccc3C(=O)O2)cc(C(C)(C)C)c1O (stereo unspecified)	45.3
CCNC(=O)NNc1ncnc2c1c(-c1ccc(Cl)cc1)cn2-c1ccc(C)cc1	34

----------
This section presents compounds with their documented GI50 values.
System: EKVX NSCLC
Test: NCI tumour cell line growth inhibition, 48 h
metric_name: GI50

COc1cc(OC)c(/C=C/C(=O)c2ccc(Nc3ncnc4ccccc34)cc2)c(OC)c1	1.69 µM
c1ccc2cc(Cn3cc[n+](Cc4ccc5ccccc5c4)c3)ccc2c1	2.51 µM
COc1cccc(Sc2ccc([N+](=O)[O-])c3no[n+]([O-])c23)c1	14.8 µM
COc1cccc(OC(=O)c2ccc(C(F)(F)F)nc2Nc2c(C)cccc2Cl)c1	36.1 µM
Cn1cc(-c2nc(-c3c[nH]c4ccncc34)cs2)c2ccccc21	1.64 µM
C=C1C(=O)O[C@H]2[C@H]1CC/C(COC(=O)c1cn(C)c3ccccc13)=C\CC[C@@]1(C)O[C@@H]21	0.962 µM
C=C(C)[C@@H]1C/C=C(/CO)CC[C@H]2O[C@]2(C)CC/C=C(\C)CC1	12.9 µM
COc1ccc(C(C#N)=C2C=CC(=NO)C=C2)cc1	17.6 µM
Oc1[nH]c(N=C2N=c3ccccc3=N2)c2ccccc12	4.22 µM
Cc1ccc2[nH]c3c(c2c1)N=c1ccccc1=NO3	26.2 µM

----------
Tested on: CCRF-CEM leukemia
Experiment: NCI tumour cell line growth inhibition, 48 h
This section presents compounds with their documented TGI values.
metric_name: TGI (µM)

C=C1C(=O)[C@]23C[C@H]1C[C@@H](O)[C@H]2[C@]1(COC3=O)[C@@H](OC(C)=O)CC[C@@](C)(COC(C)=O)[C@H]1C=O	15.1
COC1=CC(=O)c2c(cc(COP(N)(=O)N(CCCl)CCCl)n2C)C1=O (stereo not given)	8
CCCCCCCCCCCC[N+](C)(C)Cc1ccccc1	5.43
Cc1ccc(NC(=O)C(=O)C(C(=O)c2ccc3ccccc3c2)C2OC(=O)c3ccccc32)c(C)c1 (stereo not given)	78.1

----------
System: DU-145 prostate
Assay: NCI tumour cell line growth inhibition, 48 h
metric_name: TGI

CC(CN1CC(=O)NC(=O)C1)N1CC(=O)NC(=O)C1 (stereo not given)	> 750 µM
COC(=O)c1ccccc1NC(=S)NN(C)C	> 100 µM
CC(CN(C)C)S(=O)(=O)c1ccc(-c2cnc(N)c(C(=O)Nc3ccccc3)n2)cc1 (stereo not given)	> 49.8 µM
CC(C(=O)NCCNC(=O)CCC(=O)N(C)O)C(=O)NCCNC(=O)CCC(=O)N(C)O	> 100 µM
COC1(OC)C2(Cl)C(Cl)=C(Cl)C1(Cl)C1c3ccc(C(C)=O)c4cccc(c34)C12 (stereo not given)	> 100 µM

----------
This section presents compounds with their documented GI50 values.
Tested on: HOP-62 NSCLC
Assay: NCI tumour cell line growth inhibition, 48 h
metric_name: GI50

C=CCNc1nc(O)c(/C=C2\C=Nc3ncccc32)s1	1.84 µM
CN(C)C[C@H]1CCn2c(c(C3=C(c4cn(C)c5ccccc45)C(=O)NC3=O)c3ccccc32)C1	4.57 µM
O=c1cc(-c2ccccc2)oc2ccc(OC/C(=N/O)c3ccc(F)cc3)cc12	8.79 µM
CC(=O)O[C@@]12CO[C@@H]1C[C@H](O)[C@@]1(C)C(=O)[C@H](O)C3=C(C)[C@@H](OC(=O)[C@H](O)[C@@H](NC(=O)OC(C)(C)C)c4ccccc4)C[C@@](O)([C@@H](OC(=O)c4ccccc4)C12)C3(C)C (some centres undefined)	< 0.005 µM
Nc1ncnc2c1c(-c1ccc(Oc3ccccc3)cc1)nn2C[C@H]1SSC[C@@H]1O	0.26 µM
COC12C=C/C(=C(/C(=O)OCCSc3ccnn3C)C(=O)CCCCCCCCC3(OC)C=C/C(=C(/C(=O)OCCSc4ccnn4C)C(=O)CCCCCCCC1)O3)O2	0.95 µM
CCCCCCCCCCCC[N+](C)(C)Cc1ccccc1	2.69 µM
O=C1/C(=C/c2ccc(F)c(F)c2)CN(C(=O)C(Cl)Cl)C/C1=C\c1ccc(F)c(F)c1	0.239 µM
COc1ccc(N2C(=O)/C(=C/C(Cl)=C/c3ccc([N+](=O)[O-])cc3)SC2=S)cc1	2.12 µM

----------
Test system: OVCAR-8 ovarian
Assay: NCI tumour cell line growth inhibition, 48 h; in the data active means GI50 below about 0.43 µM; inactive means the rest
*1 amine or outer side, *2 acyl side, *3 side chain or, on linkers, in order; H or OH if unused. Where a SMILES comes first, the peptide text is derived from it. Bridges are numbered along the chain shown (N, C = ends). Roman numbers before positions name the chains, in order. [ ]: non-standard residue; d: D form. Actinocin(9to1) = Cc1c2oc3c(C)ccc(C(=O)[*:1])c3nc-2c(C(=O)[*:2])c(N)c1=O; NMeV = CN[CH](C(=O)O)C(C)C; Sar = CNCC(=O)O
Labels: active, inactive

CN(C)C[C@H]1CCn2c(c(C3=C(c4cn(C)c5ccccc45)C(=O)NC3=O)c3ccccc32)C1	inactive
CC(C)=O.O=C([O-])C(F)(F)F.O=C([O-])C(F)(F)F.O=C([O-])C(F)(F)F.O=C([O-])C(F)(F)F.[Rh+2].[Rh+2]	inactive
O=C1Nc2ccccc2/C1=C\c1cccc(/C=C2/C(=O)Nc3ccccc32)n1	active
COc1ccc(N2C(=O)/C(=C/C(Cl)=C/c3ccc([N+](=O)[O-])cc3)SC2=S)cc1	inactive
Cc1c2oc3c(C)ccc(C(=O)OC(C)C4NC(=O)C(C(C)C)N(C)C(=O)CN(C)C(=O)C5CCCN5C(=O)C(C(C)C)NC4=O)c3nc-2c(C(=O)OC(C)C2NC(=O)C(C(C)C)N(C)C(=O)CN(C)C(=O)C3CCCN3C(=O)C(C(C)C)NC2=O)c(N)c1=O (stereo unspecified) (I: cyclo([Sar][NMeV]TVP) / II: cyclo([Sar][NMeV]TVP); linker I:3-II:3 via Actinocin(9to1); configuration not given here)	active
CCC#CC[C@H](O)C/C=C1/C(=O)C=C[C@@H]1C/C=C\CCCC(=O)OC	inactive
